The origin of these recorded values is ChEMBL document CHEMBL1127749.

- experimentalSystem: Muscarinic acetylcholine receptor
- testDescription: In vitro binding affinity for muscarinic receptor by displacing [3H]oxotremorine-M binding on rat brain homogenate.
- Type: tissue-based
I'd be grateful if you could share measured Ki for these entries.
Numbers only, in nM.

// solved cases for Ki follow
CCN1CCC=C(c2nnn(CC)n2)C1
78
CCn1ncc(C2=CCCN(C)C2)n1
1.7
CCn1ncc(C2CCCNC2)n1 (racemic)
11
CCn1cc(C2=CCCN(C)C2)nn1
990
CCCCn1ncc(C2=CCCNC2)n1
4.9
CCCCCCCn1nnc(C2=CCCN(C)C2)n1
120
C#CCn1nnc(C2=CCCN(C)C2)n1
4.5
CCn1nnc(C2=CCCN(C)C2)n1
9.2

Quick one: give me Ki for each item below, same order please.
1. CC1=C(c2nnn(C)n2)CNCC1
2. CN1CCC=C(c2cnn(C)n2)C1
3. Cn1nnc(C2CCCNC2)n1 (racemic)
4. CC1CC=C(c2nnn(C)n2)CN1 (stereo not given)
5. CCn1nncc1C1=CCCN(C)C1
6. C=CCn1ncc(C2CCCNC2)n1 (single isomer, unassigned; (+))

Response:
[570, 0.78, 33, 180, 318, 45]
